- Tested on: sub-genomic HCV NS3-NS5B replicon genotype 1a C316Y (Huh-7 cells)
- Protocol text: Replicon luciferase cell based assay, genotype 1a C316Y
- Experimental parameters: Hepatitis C virus, Huh-7, 48 h, read-out: EC50 1a 316Y
pEC50: −log10 of the molar value.
Metric name: pEC50

Endpoint output: pEC50 of CNC(=O)c1c(-c2ccc(F)cc2)oc2cc(N(c3ccc(B(O)O)c(Cl)c3)S(C)(=O)=O)c(C3CC3)cc12 [Example 1] . Value?
8.00 to 9.00

Again, but for CNC(=O)c1c(-c2ccc(F)cc2)oc2cc(N(c3ccc(C4CCB(O)O4)c(Cl)c3)S(C)(=O)=O)c(C3CC3)cc12 (single isomer, unassigned; enantiomer 1) [Example 28]
6.70 to 7.96

Again, but for CNC(=O)c1c(-c2ccc(F)cc2)oc2cc(N(c3cccc(B(O)O)c3)S(C)(=O)=O)c(C3CC3)cc12 [Example 4]
< 6.00

Again, but for CNC(=O)c1c(-c2ccc(F)cc2)oc2cc(N(c3cc(F)c4c(c3)COB4O)S(C)(=O)=O)c(C3CC3)cc12 [Example 24]
6.70 to 7.96

The values you see were collected from patent US9682999B2.
